# Test system: KM12 colon
# protocol: NCI-60 one-dose screen, 48 h (100 = growth as untreated, 0 = no growth, -100 = all killed)
# measurementConditions: 10 µM unless noted
About 83,000 compounds went through this panel and 20% of them were active in at least one assay; those are over-represented in the sample as a whole.
parameterMeasured: growth (%)
Answers are plain numbers, in %.

CCOc1ccc(-c2cc(-c3cc(C(C)C)c(O)cc3C)nn2-c2ccc(S(N)(=O)=O)cc2)cc1 | 7.96
CCOc1ccccc1[C@H]1C(C(=O)c2ccc(Cl)cc2)C2(N[C@@H]1c1ccccc1)C(=O)Nc1ccc(Cl)cc12 (some centres undefined) | 24.2
CC1=C(C(=O)OCc2ccccc2)C(c2cccc3ccccc23)n2c(nc3ccccc32)N1 (centres undefined) | 19.1
C/C(=N\Nc1ccc(S(N)(=O)=O)cc1)c1cnn(-c2cc(=O)[nH]c3ccc(Br)cc23)c1C | 53.7
O=C(c1ccc(O)cc1)C1[C@H](c2ccc(Cl)cc2)[C@@H](c2ccccc2)NC12C(=O)Nc1ccc(Br)cc12 (some centres undefined) | -25.4

Below are some molecules; for each one, tell me its growth.
1. COc1ccc(Nc2ncnc3sc4c(c23)CCN(Cc2ccccc2)C4)cc1
2. O=C(Nc1nc2ccc([N+](=O)[O-])cc2s1)Nc1ccccc1F
3. O=C(NC(=S)N1CCN(c2ncnc3c2cnn3-c2ccccc2)CC1)c1ccc(Br)cc1
4. O=C(NN1C(=O)/C(=C/C=C/c2ccc([N+](=O)[O-])o2)SC1=S)c1ccncc1

Found:
1. 82.1
2. 13.6
3. 92.5
4. -94.3

These measurements were taken from PubChem BioAssay (NCI).
